Attribution: patent US10233173B2

target: human GluN1/GluN2B NMDA receptors (Homo sapiens, UniProt Q05586+Q13224); assay: Cell-based calcium flux (FLIPR) assay on cloned human NR1/NR2B ion channels expressed in mammalian cells; conditions: standard assay; human GluN1/GluN2B, calcium flux (FLIPR), glutamate ~EC80
Sequence (Q13224 27-1484, other chains not shown): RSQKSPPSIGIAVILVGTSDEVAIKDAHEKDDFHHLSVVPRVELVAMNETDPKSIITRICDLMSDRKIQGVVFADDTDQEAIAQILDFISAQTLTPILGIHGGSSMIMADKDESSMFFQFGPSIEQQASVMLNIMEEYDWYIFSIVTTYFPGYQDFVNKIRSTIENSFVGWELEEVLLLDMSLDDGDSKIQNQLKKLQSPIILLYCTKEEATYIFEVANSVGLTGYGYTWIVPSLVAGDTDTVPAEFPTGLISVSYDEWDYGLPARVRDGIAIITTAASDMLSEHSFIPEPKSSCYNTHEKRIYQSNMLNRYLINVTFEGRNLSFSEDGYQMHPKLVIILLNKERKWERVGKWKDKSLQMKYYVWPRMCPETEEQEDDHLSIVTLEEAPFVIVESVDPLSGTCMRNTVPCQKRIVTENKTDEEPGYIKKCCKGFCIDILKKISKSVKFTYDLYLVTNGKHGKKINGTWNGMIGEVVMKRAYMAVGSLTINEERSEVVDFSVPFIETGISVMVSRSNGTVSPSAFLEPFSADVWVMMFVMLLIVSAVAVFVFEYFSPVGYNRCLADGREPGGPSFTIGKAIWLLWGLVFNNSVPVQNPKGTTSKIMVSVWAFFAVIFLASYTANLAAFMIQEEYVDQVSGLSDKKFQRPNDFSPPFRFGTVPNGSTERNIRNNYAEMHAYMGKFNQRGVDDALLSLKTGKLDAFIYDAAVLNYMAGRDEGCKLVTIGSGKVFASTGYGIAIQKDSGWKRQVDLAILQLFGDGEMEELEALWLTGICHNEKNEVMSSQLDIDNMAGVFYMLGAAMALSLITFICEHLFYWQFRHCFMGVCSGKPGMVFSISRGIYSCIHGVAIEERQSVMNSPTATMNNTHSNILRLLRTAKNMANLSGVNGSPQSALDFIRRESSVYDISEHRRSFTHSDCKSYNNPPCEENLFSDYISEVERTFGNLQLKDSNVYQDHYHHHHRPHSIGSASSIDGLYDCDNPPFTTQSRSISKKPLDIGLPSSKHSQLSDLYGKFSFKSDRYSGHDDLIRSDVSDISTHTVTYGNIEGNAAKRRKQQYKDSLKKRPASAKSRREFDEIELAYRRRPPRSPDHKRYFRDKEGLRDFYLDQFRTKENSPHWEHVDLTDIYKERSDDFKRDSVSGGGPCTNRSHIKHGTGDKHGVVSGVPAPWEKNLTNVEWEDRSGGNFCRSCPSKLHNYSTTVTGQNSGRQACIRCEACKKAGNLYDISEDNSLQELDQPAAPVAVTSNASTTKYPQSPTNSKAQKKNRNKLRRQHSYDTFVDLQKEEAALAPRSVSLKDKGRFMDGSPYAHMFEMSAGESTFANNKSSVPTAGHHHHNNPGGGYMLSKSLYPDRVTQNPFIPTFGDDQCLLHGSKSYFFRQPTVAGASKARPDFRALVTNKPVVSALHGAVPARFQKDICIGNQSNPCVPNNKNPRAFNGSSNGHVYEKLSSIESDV
# T = IC50 below 0.1 µM (exclusive); F = IC50 at/above 0.1 µM

| cpd.smiles | class |
| --- | --- |
| Cc1cccc(-n2cc(COc3nccc(C)n3)nn2)c1 | F |
| Cc1cnc(NCc2cn(-c3ccc(F)c(C(C)(F)F)c3)nn2)nc1 | F |
| FC(F)Oc1cc(-n2cc(CNc3ncco3)nn2)ccc1Cl | F |
| Cc1ccc(OCc2cn(-c3ccc(F)c(OC(F)F)c3)nn2)nc1 | T |

Okay, next one:
Task: # check: IC50 < 0.1 µM for Cc1cc(C)cc(-n2cc(COc3ncc(Cl)cn3)nn2)c1
Output: F

----------
molecular target: human GluN1/GluN2B NMDA receptors (Homo sapiens, UniProt Q05586+Q13224); assay: Cell-based calcium flux (FLIPR) assay on cloned human NR1/NR2B ion channels expressed in mammalian cells; conditions: standard assay; human GluN1/GluN2B, calcium flux (FLIPR), glutamate ~EC80
quantity: IC50 (µM)
Use µM as the unit, but write only the number.

Below, 6 molecules whose answers are already recorded.
| molecule | IC50 / µM |
| --- | --- |
| FC(F)c1cc(-n2cc(COc3ncc(Cl)cn3)nn2)ccc1Cl | 0.003 |
| CC(C)c1cccc(-n2cc(COc3ncccn3)nn2)c1 | 0.358 |
| FC(F)c1cccc(-n2cc(COc3nccc(C(F)F)n3)nn2)c1 | 0.813 |
| Cc1ccnc(OCc2cn(-c3ccc(F)c(C(C)(F)F)c3)nn2)n1 | 0.007 |
| CC(C)(O)c1cnc(OCc2cn(-c3ccc(Cl)c(OC(F)F)c3)nn2)nc1 | 0.028 |
| CC(F)(F)c1cccc(-n2cc(COc3nccc(C(F)F)n3)nn2)c1 | 0.085 |

Task: Which value of IC50 has been reported for CC(F)(F)c1cc(-n2cc(COc3ncc(N4CCOCC4)cn3)nn2)ccc1F in the records?
Output: 0.088

----------
target: human GluN1/GluN2B NMDA receptors (Homo sapiens, UniProt Q05586+Q13224); assay: Cell-based calcium flux (FLIPR) assay on cloned human NR1/NR2B ion channels expressed in mammalian cells; conditions: standard assay; glutamate at ~EC80; FLIPR calcium flux
log10 of IC50 by entry:
Answers are given as log10 of IC50 in µM.

Below, 2 compounds whose answers are already recorded.
| compound | log10 of IC50 |
| --- | --- |
| COC1CN(c2cnc(OCc3cn(-c4ccc(F)c(C(F)(F)F)c4)nn3)nc2)C1 | -0.14 |
| Fc1ccc(-n2cc(COc3ncc(Cl)cn3)nn2)cc1F | -0.62 |

Task: Which value of log10 of IC50 has been reported for FCCOc1cnc(OCc2cn(-c3ccc(F)c(Br)c3)nn2)nc1 in the records?
Output: -2.22

Task: Which value of log10 of IC50 has been reported for CCc1cnc(OCc2cn(-c3ccc(F)cc3C)nn2)nc1 in the records?
Output: 0.07

Task: Which value of log10 of IC50 has been reported for Cc1cccc(-n2cc(COc3ncc(C(F)(F)F)cn3)nn2)c1F in the records?
Output: 0.03

Task: Which value of log10 of IC50 has been reported for CC(C)(O)c1cnc(OCc2cn(-c3cccc(Cl)c3F)nn2)nc1 in the records?
Output: 0.67

Task: Which value of log10 of IC50 has been reported for CC(F)(F)c1cc(-n2cc(COc3nccc(N)n3)nn2)ccc1Cl in the records?
Output: -1.48

Task: Which value of log10 of IC50 has been reported for Cc1ccc(-n2cc(COc3ncc(Br)cn3)nn2)cc1OC(F)F in the records?
Output: -1.40

Task: Which value of log10 of IC50 has been reported for COCc1cnc(OCc2cn(-c3ccc(F)c(C(C)(F)F)c3)nn2)nc1 in the records?
Output: -1.05

Task: Which value of log10 of IC50 has been reported for Cc1cccc(-n2cc(COc3ncc(OC(F)F)cn3)nn2)c1F in the records?
Output: 0.24

Task: Which value of log10 of IC50 has been reported for Fc1ccc(-n2cc(COc3ncc(C4CC4)cn3)nn2)cc1C(F)F in the records?
Output: -2.30

Task: Which value of log10 of IC50 has been reported for CC(C)(O)c1cnc(OCc2cn(-c3ccc(F)c(OC(F)F)c3)nn2)nc1 in the records?
Output: -1.17

Task: Which value of log10 of IC50 has been reported for CNc1ccnc(OCc2cn(-c3ccc(Cl)c(C(C)(F)F)c3)nn2)n1 in the records?
Output: -1.26

Task: Which value of log10 of IC50 has been reported for CCc1cnc(OCc2cn(-c3ccnc(Br)c3)nn2)nc1 in the records?
Output: -0.58

Task: Which value of log10 of IC50 has been reported for CC(F)(F)c1cc(-n2cc(COc3ncc(C(C)(O)C(F)(F)F)cn3)nn2)ccc1Cl (racemic) in the records?
Output: -0.35

Task: Which value of log10 of IC50 has been reported for Cc1c(F)ccc(-n2cc(COc3ncc(C(C)C)cn3)nn2)c1F in the records?
Output: -1.28

Task: Which value of log10 of IC50 has been reported for Fc1ccc(-n2cc(COc3nccc(C(F)F)n3)nn2)cc1C(F)(F)F in the records?
Output: -1.01

Task: Which value of log10 of IC50 has been reported for Cc1ccnc(OCc2cn(-c3ccc(F)c(C(F)(F)F)c3)nn2)c1 in the records?
Output: -0.18
